assayOverview: Pharmacokinetic study of compound A2 in rats
Format: in vivo
conditionNotes: rat, in vivo, 10 mg/kg, PO
assayEndpoint: bioavailability

Q: Output bioavailability of Cc1ccc(C(F)(F)F)cc1NS(=O)(=O)c1cccc(C(=O)O)c1 [Compound A2]
Ans: 45%

====

assayOverview: Compound A2 concentration in the CSF of rats
Assay type: in vivo
conditionNotes: rat, CSF, po, 10 mg/kg, PO, 2.0 h, individual animals, read-out: CSF Concentration
assayEndpoint: concentration at 2 h
Please give the number followed by its unit.

Q: Output concentration at 2 h of Cc1ccc(C(F)(F)F)cc1NS(=O)(=O)c1cccc(C(=O)O)c1
Ans: 3.6 ng/mL
